Test system: ATF4 translation (ATF4 pathway), SH-SY5Y-ATF4-NanoLuc cells
Experiment: ATF4 cell based assay (ATF4 5'-UTR NanoLuc luciferase reporter, Thapsigargin induced cellular stress)
Details: SH-SY5Y-ATF4-NanoLuc cells challenged with Thapsigargin for 14-18 hours; average of two or more experimental runs; read-out: average ATF4 pathway inhibitory activity (IC50)
pIC50: −log10 of the molar value.
Recorded pIC50 for the following molecules

Previously resolved entries follow.
molecule	measurement_name	recorded_value
O=C(COc1ccc(F)cc1Cl)NCC1CCN(CCCOc2ccc(Cl)cc2)C1 (centres unmarked)	pIC50	6.00 to 7.00
O=C(COc1ccc(Cl)cc1)NC[C@H]1CCN(C(=O)COc2ccc(Cl)cc2)C1	pIC50	6.60
O=C(COc1ccc(Cl)cc1)NOC1CCN(C(=O)COc2ccc(Cl)cc2)C1 (centres unmarked)	pIC50	6.00 to 7.00

Lookup result for O=C(COc1ccc(Cl)cc1)NOC1CCN(C(=O)CCOc2ccc(Cl)cc2)C1 (centres unmarked) ; measured pIC50: > 7.00

// field: pIC50; key: O=C(COc1ccc(Cl)cc1)NC1CCN(C(=O)COc2ccc(Cl)cc2)C1 (centres unmarked) ; value = 5.00 to 6.00

The value of pIC50 measured for the molecule CC1(CNC(=O)COc2ccc(Cl)cc2)CCN(C(=O)COc2ccc(Cl)cc2)C1 (centres unmarked) turned out to be 5.00 to 6.00

Looking up O=C(COc1ccc(Cl)cc1)NCC1CCN(C(=O)N2CCc3cc(Cl)ccc3C2)C1 (centres unmarked) , I found its pIC50 recorded as 6.00 to 7.00

The reported value for O=C(COc1ccc(Cl)cc1)NCC1CCN(CCCOc2ccc(C(F)(F)F)cc2)C1 (centres unmarked) in terms of pIC50 is 6.00 to 7.00

For this molecule ( O=C(COc1ccc(Cl)cc1)N1CCC(CNCCOc2ccc(Cl)cc2)C1 (centres unmarked) ), measured pIC50 is 6.00 to 7.00

Recorded result, O=C(COc1ccc(Cl)cc1)NCC1CCN(C(=O)C2CC2c2ccc(Cl)cc2)C1 (centres unmarked) , pIC50: > 7.00

Lab note: measured pIC50 of O=C(COc1ccc(Cl)cc1)NC1C[C@@H]2CN(C(=O)COc3ccc(Cl)cc3)CC12 (stereo in doubt) was > 7.00

pIC50 recorded for this molecule, O=C(COc1ccc(Cl)cn1)NCC1CCN(CCCOc2ccc(Cl)cc2)C1 (centres unmarked) , is 6.00 to 7.00

So, O=C(COc1ccc(Cl)cc1)NCC1CCN(CCCOc2ccc(Cl)cc2)C1=O (centres unmarked) ? Its pIC50 was 6.00 to 7.00

Reported pIC50 of O=C(COc1ccc(Cl)cc1)N[C@H]1[C@@H]2CN(CC(O)COc3ccc(Cl)cc3)C[C@@H]21 (some centres unmarked) : > 7.00

For O=C(COc1ccc(Cl)cc1)NCC1CCN(C(=O)C2CCc3cc(Cl)ccc3O2)C1 (centres unmarked) the molecule record lists pIC50 as > 7.00

Item: `O=C(COc1ccc(Cl)cc1)N1CCC2(CCN(C(=O)COc3ccc(Cl)cc3)C2)C1` | pIC50: 5.00 to 6.00

Recorded pIC50 (molecule O=C(COc1ccc(Cl)cc1)NCC1CCN(C(=O)COc2cncc(Cl)c2)C1 (centres unmarked) ): 5.00 to 6.00
